Tested on: Streptococcus Group D X66
MEASUREMENT KIND: MIC (µg/mL)
Numbers only, in µg/mL.

Below, 2 compounds whose answers are already recorded.
• CCC1OC(=O)CC(O)C(C)C(OC2OC(C)C(OC3CC(C)(O)C(O)C(C)O3)C(N(C)C)C2OC(C)=O)C(CC=O)CC(C)C(=O)C=CC(C)=CC1COC(=O)n1ccnc1 (stereo not drawn) = 2
• CCC1OC(=O)CC(O)C(C)C(OC2OC(C)C(OC3CC(C)(O)C(O)C(C)O3)C(N(C)C)C2O)C(CC=O)CC(C)C(=O)C=CC(C)=CC1COC(=O)n1ccnc1 (stereo not drawn) = 1

Please find the next compound below.
Request: Quick one: give measured MIC for CCC1OC(=O)CC(O)C(C)C(OC2OC(C)C(OC3CC(C)(O)C(O)C(C)O3)C(N(C)C)C2O)C(CC=O)CC(C)C(=O)C=CC(C)=CC1COC(=O)NCCCO (stereo not drawn)
Result: 2

---

Tested on: Haemophilus influenzae R252
EXPERIMENTAL DETAILS: standard agar-dilution assay (MIC)
Format: cell-based
CONDITION CONTEXT: Haemophilus influenzae R252, ampicillin-resistant strain, unit assumed
MEASUREMENT KIND: MIC

Below, 2 molecules whose answers are already recorded.
- CCC1OC(=O)CC(O)C(C)C(OC2OC(C)C(OC3CC(C)(O)C(O)C(C)O3)C(N(C)C)C2OC(=O)Cc2ccccc2)C(CC=O)CC(C)C(=O)C=CC(C)=CC1COC(=O)Cc1ccccc1 (stereo not drawn): > 128 µg/mL
- CCC1OC(=O)CC(O)C(C)C(OC2OC(C)C(OC3CC(C)(O)C(O)C(C)O3)C(N(C)C)C2OC(C)=O)C(CC=O)CC(C)C(=O)C=CC(C)=CC1COC(=O)CCCCc1ccccc1 (stereo not drawn): > 128 µg/mL

Please find the next molecule below.
Request: Quick one: give measured MIC for CCC1OC(=O)CC(O)C(C)C(OC2OC(C)C(OC3CC(C)(O)C(O)C(C)O3)C(N(C)C)C2OC(C)=O)C(CC=O)CC(C)C(=O)C=CC(C)=CC1COC(=O)C12CC3CC(CC(C3)C1)C2 (stereo not drawn)
Result: > 128 µg/mL

---

# MIC per entry for Streptococcus Group D X66
Answers are plain numbers, in µg/mL.

Below, 5 compounds whose answers are already recorded.
• CCC1OC(=O)CC(O)C(C)C(OC2OC(C)C(OC3CC(C)(O)C(O)C(C)O3)C(N(C)C)C2O)C(CC=O)CC(C)C(=O)C=CC(C)=CC1COC(=O)OC (stereo not drawn) = 0.5
• CCC1OC(=O)CC(O)C(C)C(OC2OC(C)C(OC3CC(C)(O)C(O)C(C)O3)C(N(C)C)C2OC(C)=O)C(CC=O)CC(C)C(=O)C=CC(C)=CC1COC(=O)Cc1ccc(Cl)cc1 (stereo not drawn) = 1
• CCC1OC(=O)CC(O)C(C)C(OC2OC(C)C(OC3CC(C)(O)C(O)C(C)O3)C(N(C)C)C2OC(C)=O)C(CC=O)CC(C)C(=O)C=CC(C)=CC1COC(=O)CCCCc1ccccc1 (stereo not drawn) = 2
• CCC1OC(=O)CC(O)C(C)C(OC2OC(C)C(OC3CC(C)(O)C(O)C(C)O3)C(N(C)C)C2OC(C)=O)C(CC=O)CC(C)C(=O)C=CC(C)=CC1COC(=O)COc1ccccc1 (stereo not drawn) = 0.5
• CCC(=O)OCC1C=C(C)C=CC(=O)C(C)CC(CC=O)C(OC2OC(C)C(OC3CC(C)(O)C(O)C(C)O3)C(N(C)C)C2OC(C)=O)C(C)C(O)CC(=O)OC1CC (stereo not drawn) = 1

Please find the next compound below.
Request: Quick one: give measured MIC for CCC1OC(=O)CC(O)C(C)C(OC2OC(C)C(OC3CC(C)(O)C(O)C(C)O3)C(N(C)C)C2OC(C)=O)C(CC=O)CC(C)C(=O)C=CC(C)=CC1COC(=O)C(Cl)(Cl)Cl (stereo not drawn)
Result: 1
